# assay system: SALL4 ZFC4 R900W (HT-SELEX) (Mus musculus, UniProt Q8BX22 870-940, R900W)
# Sequence: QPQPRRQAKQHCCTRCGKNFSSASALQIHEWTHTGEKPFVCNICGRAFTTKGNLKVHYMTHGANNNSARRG
# assay method text: HT-SELEX; high values mean tight binding
# reported conditions: protein: recombinant; vector His6-GST; dsDNA, one strand shown

item sequence: GCGGTA
binding signal [fold-change vs cycle 0]: 0.271

item sequence: CCTTGA
binding signal [fold-change vs cycle 0]: 1.04

item sequence: AACCAA
binding signal [fold-change vs cycle 0]: 1.31

item sequence: CCGACC
binding signal [fold-change vs cycle 0]: 0.172

item sequence: AGAAGA
binding signal [fold-change vs cycle 0]: 1.64

item sequence: CTCTGC
binding signal [fold-change vs cycle 0]: 0.396

item sequence: CATAGC
binding signal [fold-change vs cycle 0]: 0.746

item sequence: CCAGAG
binding signal [fold-change vs cycle 0]: 0.544

item sequence: GTCTGA
binding signal [fold-change vs cycle 0]: 0.884

item sequence: AGGCAC
binding signal [fold-change vs cycle 0]: 0.34

item sequence: ACGAGG
binding signal [fold-change vs cycle 0]: 0.534

item sequence: CTGGCC
binding signal [fold-change vs cycle 0]: 0.139

item sequence: AGTTTG
binding signal [fold-change vs cycle 0]: 1.23

item sequence: AAAGTC
binding signal [fold-change vs cycle 0]: 1.25

item sequence: CCCCCG
binding signal [fold-change vs cycle 0]: 0.133

item sequence: GAAATA
binding signal [fold-change vs cycle 0]: 1.89

item sequence: CCCACA
binding signal [fold-change vs cycle 0]: 0.42

item sequence: ACGCGT
binding signal [fold-change vs cycle 0]: 0.28

item sequence: AACACG
binding signal [fold-change vs cycle 0]: 0.737

item sequence: CACCGG
binding signal [fold-change vs cycle 0]: 0.216

item sequence: CCAAAG
binding signal [fold-change vs cycle 0]: 0.801

item sequence: AGCCCT
binding signal [fold-change vs cycle 0]: 0.423

item sequence: AAAAAG
binding signal [fold-change vs cycle 0]: 1.68
